Origin of values: ChEMBL document CHEMBL1155968

test system: Mus musculus; experiment: Anticonvulsant activity in ip dosed albino mouse assessed as inhibition of maximal electric shock-induced seizures after 0.5 hrs; format: functional
Calls of active or inactive are those of the source. No cut-off for these calls is given here.

molecule: NC(=O)N1c2ccccc2C=Cc2ccccc21 [CARBAMAZEPINE]
tested-system: Mus musculus
Activity: inactive

molecule: O=C(Nc1ccc([N+](=O)[O-])cc1)Nn1c(-c2ccccc2)nc2ccccc2c1=O
tested-system: Mus musculus
Activity: 300 mg/kg

molecule: O=C(Nc1ccc(F)cc1)Nn1c(-c2ccccc2)nc2ccccc2c1=O
tested-system: Mus musculus
Activity: inactive

molecule: CCOc1ccc(NC(=O)Nn2c(CC)nc3ccccc3c2=O)cc1
tested-system: Mus musculus
Activity: 300 mg/kg
